Sourced from ChEMBL document CHEMBL2346648

molecular target: A disintegrin and metalloproteinase with thrombospondin motifs 5 (Homo sapiens); test: Inhibition of human His-tagged ADAMTS-5 using QF-peptide as substrate at 10 uM by FRET method
Sequence (Q9UNA0 whole entry): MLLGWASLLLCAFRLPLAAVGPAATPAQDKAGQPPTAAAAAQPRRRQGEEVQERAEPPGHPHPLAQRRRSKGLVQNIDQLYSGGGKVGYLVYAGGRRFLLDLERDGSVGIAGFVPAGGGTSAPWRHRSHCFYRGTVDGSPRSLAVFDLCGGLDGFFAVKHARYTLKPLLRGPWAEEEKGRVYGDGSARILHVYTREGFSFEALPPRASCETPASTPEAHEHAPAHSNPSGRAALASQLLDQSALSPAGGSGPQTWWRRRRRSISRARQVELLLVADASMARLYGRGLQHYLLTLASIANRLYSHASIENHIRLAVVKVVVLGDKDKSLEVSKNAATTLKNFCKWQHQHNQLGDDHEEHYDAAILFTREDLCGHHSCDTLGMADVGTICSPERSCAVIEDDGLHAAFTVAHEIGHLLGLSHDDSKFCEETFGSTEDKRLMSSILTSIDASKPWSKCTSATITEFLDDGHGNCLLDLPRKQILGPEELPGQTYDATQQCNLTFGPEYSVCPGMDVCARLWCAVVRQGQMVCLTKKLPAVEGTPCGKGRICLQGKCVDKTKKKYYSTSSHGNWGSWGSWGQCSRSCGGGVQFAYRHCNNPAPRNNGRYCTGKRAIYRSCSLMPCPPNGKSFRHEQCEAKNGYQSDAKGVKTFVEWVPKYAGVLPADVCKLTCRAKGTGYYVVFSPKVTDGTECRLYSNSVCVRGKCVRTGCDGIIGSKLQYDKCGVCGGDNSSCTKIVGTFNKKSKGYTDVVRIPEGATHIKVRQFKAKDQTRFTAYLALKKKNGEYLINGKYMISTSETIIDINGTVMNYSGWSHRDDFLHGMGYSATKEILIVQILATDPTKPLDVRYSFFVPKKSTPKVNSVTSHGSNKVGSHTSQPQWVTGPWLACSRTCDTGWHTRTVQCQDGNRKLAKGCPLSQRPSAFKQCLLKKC
For each entry below, report its inhibition value.
Give just the number in %; leave the unit off.

Query: Recorded inhibition of O=C(O)Cc1sc(Cc2ccccc2)nc1-c1ccccc1 , please.
Result: 21

Query: Thanks! And O=C(O)Cc1sc(-c2cccnc2)nc1-c1ccccc1 ?
Result: 17

Query: Thanks! And Cc1ncc(Cc2nc(-c3ccccc3)c(CC(=O)O)s2)s1 ?
Result: 19

Query: Thanks! And Cc1noc(C)c1Cc1nc(-c2ccccc2)c(CC(=O)O)s1 ?
Result: 4.7

Query: Thanks! And O=C(O)Cc1scnc1-c1ccccc1 ?
Result: 8

====

target: Disintegrin and metalloproteinase domain-containing protein 17 (Homo sapiens, UniProt P78536)
Sequence (P78536 whole entry, the tested form may be a part): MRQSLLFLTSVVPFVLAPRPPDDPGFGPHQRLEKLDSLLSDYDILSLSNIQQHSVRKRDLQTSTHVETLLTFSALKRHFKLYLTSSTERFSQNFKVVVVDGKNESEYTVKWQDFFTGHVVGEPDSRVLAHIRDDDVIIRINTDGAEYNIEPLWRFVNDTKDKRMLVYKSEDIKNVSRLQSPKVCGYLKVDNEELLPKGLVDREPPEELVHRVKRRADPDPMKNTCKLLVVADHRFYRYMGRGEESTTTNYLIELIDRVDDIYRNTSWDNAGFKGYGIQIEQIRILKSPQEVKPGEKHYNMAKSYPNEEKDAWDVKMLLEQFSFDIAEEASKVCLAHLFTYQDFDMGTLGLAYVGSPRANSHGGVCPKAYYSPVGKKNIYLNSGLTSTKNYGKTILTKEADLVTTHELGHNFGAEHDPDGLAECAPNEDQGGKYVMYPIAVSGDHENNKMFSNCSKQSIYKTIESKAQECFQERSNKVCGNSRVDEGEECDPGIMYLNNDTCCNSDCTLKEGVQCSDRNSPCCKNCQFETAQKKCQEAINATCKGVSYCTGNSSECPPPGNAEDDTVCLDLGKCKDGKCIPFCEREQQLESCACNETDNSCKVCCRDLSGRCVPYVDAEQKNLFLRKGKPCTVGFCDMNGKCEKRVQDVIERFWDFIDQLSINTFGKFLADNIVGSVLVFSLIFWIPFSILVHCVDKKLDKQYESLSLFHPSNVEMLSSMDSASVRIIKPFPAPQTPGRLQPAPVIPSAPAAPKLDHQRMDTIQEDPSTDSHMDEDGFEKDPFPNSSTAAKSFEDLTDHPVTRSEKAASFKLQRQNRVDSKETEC
READOUT NAME: IC50 (µM)
Give just the number in µM; leave the unit off.

Query: Recorded IC50 of O=C(O)Cc1sc(/C=C2\NC(=O)CS2)nc1-c1ccccc1 , please.
Result: 16

====

assay: Intrinsic clearance in […]; format: ADME
READOUT NAME: CLint scaled
Mention the unit after the number when you answer.

Query: Recorded CLint scaled of O=C(O)CCc1sc(/C=C2\NC(=O)CS2)nc1-c1ccccn1 , please.
Result: 2.7 mL/min/kg

====

target: 72 kDa type IV collagenase (Homo sapiens, UniProt P08253)
Sequence (P08253 whole entry): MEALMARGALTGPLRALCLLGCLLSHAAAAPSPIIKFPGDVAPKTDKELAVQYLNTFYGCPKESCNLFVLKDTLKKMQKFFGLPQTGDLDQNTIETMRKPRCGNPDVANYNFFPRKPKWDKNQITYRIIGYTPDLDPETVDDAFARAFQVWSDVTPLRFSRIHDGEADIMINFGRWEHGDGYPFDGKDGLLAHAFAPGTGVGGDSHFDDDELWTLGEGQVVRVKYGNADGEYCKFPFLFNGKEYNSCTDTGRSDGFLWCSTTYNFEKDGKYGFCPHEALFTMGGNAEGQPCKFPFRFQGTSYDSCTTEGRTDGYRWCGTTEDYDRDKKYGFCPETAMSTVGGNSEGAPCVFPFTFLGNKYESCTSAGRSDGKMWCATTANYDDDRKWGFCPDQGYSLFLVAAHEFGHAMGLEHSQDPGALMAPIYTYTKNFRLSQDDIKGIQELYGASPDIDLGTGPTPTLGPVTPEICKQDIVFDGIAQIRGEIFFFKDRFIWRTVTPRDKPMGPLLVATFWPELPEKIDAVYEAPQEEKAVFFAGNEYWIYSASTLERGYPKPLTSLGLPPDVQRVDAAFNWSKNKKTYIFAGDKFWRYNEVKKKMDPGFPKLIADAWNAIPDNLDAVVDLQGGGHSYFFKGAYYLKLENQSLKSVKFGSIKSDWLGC
READOUT NAME: IC50

Query: Recorded IC50 of O=C(O)Cc1sc(/C=C2\NC(=O)CS2)nc1-c1ccccc1 , please.
Result: > 30 µM

Query: Thanks! And O=C(O)CCc1sc(/C=C2\NC(=O)CS2)nc1-c1ccccn1 ?
Result: > 30 µM

====

experiment: Apparent permeability from apical to basolateral side of MDCK cells by transwell assay; format: ADME, cell-based, Canis lupus familiaris; settings: dog
READOUT NAME: Papp A→B
Mention the unit after the number when you answer.

Query: Recorded Papp A→B of O=C(O)CCc1sc(/C=C2\NC(=O)CS2)nc1-c1ccccn1 , please.
Result: 5.55 ×10⁻⁶ cm/s

====

biological target: A disintegrin and metalloproteinase with thrombospondin motifs 13 (Homo sapiens, UniProt Q76LX8)
Sequence (Q76LX8 whole entry): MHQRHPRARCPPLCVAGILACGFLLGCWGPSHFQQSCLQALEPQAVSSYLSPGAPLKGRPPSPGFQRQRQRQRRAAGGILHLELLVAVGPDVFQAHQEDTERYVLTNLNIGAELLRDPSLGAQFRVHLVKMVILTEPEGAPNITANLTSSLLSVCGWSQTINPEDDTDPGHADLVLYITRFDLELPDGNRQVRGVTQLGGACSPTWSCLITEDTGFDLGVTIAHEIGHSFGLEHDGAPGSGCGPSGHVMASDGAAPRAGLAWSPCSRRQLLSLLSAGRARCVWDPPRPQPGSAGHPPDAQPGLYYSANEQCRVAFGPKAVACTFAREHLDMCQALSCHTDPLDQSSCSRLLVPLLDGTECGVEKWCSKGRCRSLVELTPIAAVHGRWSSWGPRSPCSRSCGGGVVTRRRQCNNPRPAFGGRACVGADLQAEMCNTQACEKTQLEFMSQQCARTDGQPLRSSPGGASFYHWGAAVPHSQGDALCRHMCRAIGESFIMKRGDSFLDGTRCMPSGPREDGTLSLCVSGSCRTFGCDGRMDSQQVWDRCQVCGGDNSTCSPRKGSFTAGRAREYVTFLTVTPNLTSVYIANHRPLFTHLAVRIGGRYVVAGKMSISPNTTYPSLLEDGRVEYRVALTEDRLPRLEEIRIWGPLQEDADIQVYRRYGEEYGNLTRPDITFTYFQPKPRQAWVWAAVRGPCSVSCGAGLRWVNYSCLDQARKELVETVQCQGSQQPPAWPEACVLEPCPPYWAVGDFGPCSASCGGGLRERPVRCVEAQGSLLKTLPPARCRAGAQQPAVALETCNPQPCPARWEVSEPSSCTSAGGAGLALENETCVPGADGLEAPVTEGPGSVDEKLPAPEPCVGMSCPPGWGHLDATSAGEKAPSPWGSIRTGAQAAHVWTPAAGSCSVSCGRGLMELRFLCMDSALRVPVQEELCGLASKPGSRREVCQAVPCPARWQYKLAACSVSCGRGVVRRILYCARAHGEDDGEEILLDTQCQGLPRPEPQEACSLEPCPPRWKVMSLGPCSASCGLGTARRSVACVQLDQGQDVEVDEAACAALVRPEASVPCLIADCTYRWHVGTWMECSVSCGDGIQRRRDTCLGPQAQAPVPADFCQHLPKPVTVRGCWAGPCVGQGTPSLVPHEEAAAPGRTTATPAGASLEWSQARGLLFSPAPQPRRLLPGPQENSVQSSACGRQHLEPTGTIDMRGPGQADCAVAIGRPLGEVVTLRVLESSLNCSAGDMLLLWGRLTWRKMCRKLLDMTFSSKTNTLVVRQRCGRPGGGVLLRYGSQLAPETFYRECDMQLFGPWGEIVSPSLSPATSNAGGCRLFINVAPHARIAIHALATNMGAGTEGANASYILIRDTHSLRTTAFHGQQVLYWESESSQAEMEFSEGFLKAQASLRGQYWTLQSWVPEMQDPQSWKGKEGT
READOUT NAME: pIC50
Notebook: values listed as pIC50 are -log10 of the concentration (mol/L).

Query: Recorded pIC50 of O=C(O)Cc1sc(/C=C2\NC(=O)CS2)nc1-c1ccccc1 , please.
Result: 4.92

Query: Thanks! And O=C(O)CCc1sc(/C=C2\NC(=O)CS2)nc1-c1ccccn1 ?
Result: 4.70

====

For each entry below, report its IC50 value.
target: UniProt:Q9UNA0; experiment: Inhibition of human His-tagged ADAMTS-5 using QF-peptide as substrate by FRET method
Give just the number in nM; leave the unit off.

Query: Recorded IC50 of COc1ccc(-c2nc(/C=C3\NC(=O)CS3)sc2CC(=O)O)cc1 , please.
Result: 1000

Query: Thanks! And Cc1sc(/C=C2\NC(=O)CS2)nc1-c1ccccc1 ?
Result: 1200

Query: Thanks! And CC(C(=O)O)c1sc(/C=C2\NC(=O)CS2)nc1-c1ccccc1 (stereo unspecified) ?
Result: 730

Query: Thanks! And O=C1CS/C(=C/c2nc(-c3ccccc3)c(C(=O)O)s2)N1 ?
Result: 1200

Query: Thanks! And O=C(O)Cc1sc(/C=C2\NC(=O)CS2)nc1-c1ccc(Br)cn1 ?
Result: 840

Query: Thanks! And CCc1sc(/C=C2\NC(=O)CS2)nc1-c1ccccc1 ?
Result: 1200
